# reported ΔG (Gibbs free energy); entries follow
Experimental system: S. enterica MTAN (SeMTAN) (Salmonella choleraesuis, UniProt Q57T48)
Sequence (Q57T48 1-232): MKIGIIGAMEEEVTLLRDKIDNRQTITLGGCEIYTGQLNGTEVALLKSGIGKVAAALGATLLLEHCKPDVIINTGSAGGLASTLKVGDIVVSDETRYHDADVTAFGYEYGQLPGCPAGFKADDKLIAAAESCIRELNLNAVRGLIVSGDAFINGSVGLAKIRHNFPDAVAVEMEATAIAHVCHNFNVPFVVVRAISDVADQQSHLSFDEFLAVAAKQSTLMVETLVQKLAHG
Assay explanation: slow-onset inhibition constant
Assay type: biochemical
Settings: generated from Ki* using ΔG = RT ln Ki*
# output: bare number, implied unit kcal/mol

CCCCSC[C@H]1CN(Cc2c[nH]c3c(N)ncnc23)C[C@@H]1O [Butylthio-DADMe-ImmA, reference compound]
-16.1
CSC[C@H]1CN(Cc2c[nH]c3c(N)ncnc23)C[C@@H]1O [Methylthio-DADMe-ImmA, reference compound]
-15.4

Give ΔG (Gibbs free energy) for the following compound: Nc1ncnc2c(CN3C[C@H](CSCC[C@H](N)C(=O)O)[C@@H](O)C3)c[nH]c12 [Homocysteine-DADMe-ImmA, reference compound] -13.9

Give ΔG (Gibbs free energy) for the following compound: Nc1ncnc2c(CN3CC(O)C(CSCCCCO)C3)c[nH]c12 (stereo not shown) [4-Hydroxybutylthio-DADMe-ImmA] -14.8

Give ΔG (Gibbs free energy) for the following compound: Nc1ncnc2c(CN3CC(O)C(CSCCOCCO)C3)c[nH]c12 (stereo not shown) [2-(2-hydroxyethoxy)ethylthio-DADMe-ImmA] -15.4

Give ΔG (Gibbs free energy) for the following compound: Nc1ncnc2c(CN3CC(O)C(CSCCCO)C3)c[nH]c12 (stereo not shown) [3-Hydroxypropylthio-DADMe-ImmA] -15.2

Give ΔG (Gibbs free energy) for the following compound: Nc1ncnc2c(CN3CC(O)C(CSCCO)C3)c[nH]c12 (stereo not shown) [2-Hydroxyethylthio-DADMe-ImmA] -14.9
